The entries below come with measured Kd values attached.
- target.or.test.system: T1, SARS-CoV-2 spike trimer S (Wuhan, SmT1) (SARS-CoV-2 Wuhan)
- T1 construct: extracellular domain
- method.description: SPR, antigen on chip

binder: NRCoV2-14 VHH (VHH) VHH: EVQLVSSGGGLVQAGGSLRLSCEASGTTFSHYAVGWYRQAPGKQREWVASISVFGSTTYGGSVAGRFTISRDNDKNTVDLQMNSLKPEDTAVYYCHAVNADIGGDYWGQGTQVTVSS
unit.annotation: nM
Kd: 3.1

binder: NRCoV2-1d VHH (VHH) VHH: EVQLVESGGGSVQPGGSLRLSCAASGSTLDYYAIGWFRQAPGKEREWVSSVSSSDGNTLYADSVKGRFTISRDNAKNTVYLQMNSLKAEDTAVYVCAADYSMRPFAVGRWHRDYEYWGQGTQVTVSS
unit.annotation: nM
Kd: 1.1

binder: NRCoV2-SR16 VHH (VHH) VHH: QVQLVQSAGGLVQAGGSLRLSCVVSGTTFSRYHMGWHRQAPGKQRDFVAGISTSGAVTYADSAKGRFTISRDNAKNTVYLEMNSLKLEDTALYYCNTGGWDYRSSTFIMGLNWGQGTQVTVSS
unit.annotation: nM
Kd: 1.82

binder: NRCoV2-04 VHH (VHH) VHH: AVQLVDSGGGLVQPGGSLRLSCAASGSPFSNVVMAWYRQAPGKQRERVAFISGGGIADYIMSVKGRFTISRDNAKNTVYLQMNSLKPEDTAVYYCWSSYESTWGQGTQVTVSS
unit.annotation: nM
Kd: 10

binder: NRCoV2-S2G4 VHH (VHH) VHH: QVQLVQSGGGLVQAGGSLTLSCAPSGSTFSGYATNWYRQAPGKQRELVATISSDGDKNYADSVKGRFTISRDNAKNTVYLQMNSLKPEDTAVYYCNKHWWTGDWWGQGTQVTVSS
unit.annotation: nM
Kd: 0.232

binder: NRCoV2-SR02 VHH (VHH) VHH: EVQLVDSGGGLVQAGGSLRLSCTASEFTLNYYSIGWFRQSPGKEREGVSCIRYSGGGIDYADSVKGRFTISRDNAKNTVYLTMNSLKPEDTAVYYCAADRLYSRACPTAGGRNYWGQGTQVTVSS
unit.annotation: nM
Kd: 0.59

binder: NRCoV2-17 VHH (VHH) VHH: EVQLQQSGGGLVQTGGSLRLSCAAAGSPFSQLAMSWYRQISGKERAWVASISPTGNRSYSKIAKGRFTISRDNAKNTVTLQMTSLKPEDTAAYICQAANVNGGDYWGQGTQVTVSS
unit.annotation: nM
Kd: 0.149

binder: NRCoV2-SR13 VHH (VHH) VHH: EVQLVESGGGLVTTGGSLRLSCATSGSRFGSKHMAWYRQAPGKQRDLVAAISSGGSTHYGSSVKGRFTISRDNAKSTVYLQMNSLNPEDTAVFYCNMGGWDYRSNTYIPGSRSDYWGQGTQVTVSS
unit.annotation: nM
Kd: 2.62

binder: NRCoV2-11 VHH (VHH) VHH: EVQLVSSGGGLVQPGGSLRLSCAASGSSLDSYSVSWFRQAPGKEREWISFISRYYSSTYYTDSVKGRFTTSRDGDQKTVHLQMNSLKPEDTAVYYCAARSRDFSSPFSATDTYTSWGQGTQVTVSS
unit.annotation: nM
Kd: 0.0391

binder: NRCoV2-06 VHH (VHH) VHH: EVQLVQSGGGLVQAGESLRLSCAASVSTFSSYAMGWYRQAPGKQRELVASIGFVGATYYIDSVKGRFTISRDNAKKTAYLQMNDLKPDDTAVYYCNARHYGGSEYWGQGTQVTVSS
unit.annotation: nM
Kd: 155

binder: NRCoV2-07 VHH (VHH) VHH: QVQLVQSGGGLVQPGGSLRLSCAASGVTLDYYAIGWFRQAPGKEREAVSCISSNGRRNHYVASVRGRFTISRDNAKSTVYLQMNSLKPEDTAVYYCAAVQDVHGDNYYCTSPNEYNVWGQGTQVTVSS
unit.annotation: nM
Kd: 1.15

binder: NRCoV2-02 VHH (VHH) VHH: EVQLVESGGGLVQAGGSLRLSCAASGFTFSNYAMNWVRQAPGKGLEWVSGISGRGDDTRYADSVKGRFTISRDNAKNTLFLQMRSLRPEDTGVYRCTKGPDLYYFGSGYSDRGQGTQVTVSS
unit.annotation: nM
Kd: 0.661

binder: NRCoV2-SR03 VHH (VHH) VHH: AVQLVDSGGGLVQAGGSLRLSCAASGSIFSNNHMGWYRQAPGKQRELVAAISSGGKTNYADFAKGRFTISRDNAKNMVYLQMNSLKPEDTAVYYCNRGGWEYRSSYYIMGPHWGQGTQVTVSS
unit.annotation: nM
Kd: 1.01

binder: NRCoV2-S2A4 VHH (VHH) VHH: QVQLVQSGGGLVQAGGSLRLSCAVSGSPFRSNVMEWYRQAPGKQRELVASISTGGSRTYTDSVKGRFTISRDNAKNEAFLQMNSLKPEDTAVYYCHAAARDSHGIYLLDTWGQGTQVTVSS
unit.annotation: nM
Kd: 12.8

binder: NRCoV2-S2F3 VHH (VHH) VHH: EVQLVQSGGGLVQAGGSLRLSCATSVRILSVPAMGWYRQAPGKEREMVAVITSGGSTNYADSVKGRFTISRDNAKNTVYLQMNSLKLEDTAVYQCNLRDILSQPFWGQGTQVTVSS
unit.annotation: nM
Kd: 3.03
